Test target: purified recombinant human PARP (Homo sapiens)
Construct: purchased Trevigan (Gaithersburg, Md.)
Sequence (P09874 whole entry): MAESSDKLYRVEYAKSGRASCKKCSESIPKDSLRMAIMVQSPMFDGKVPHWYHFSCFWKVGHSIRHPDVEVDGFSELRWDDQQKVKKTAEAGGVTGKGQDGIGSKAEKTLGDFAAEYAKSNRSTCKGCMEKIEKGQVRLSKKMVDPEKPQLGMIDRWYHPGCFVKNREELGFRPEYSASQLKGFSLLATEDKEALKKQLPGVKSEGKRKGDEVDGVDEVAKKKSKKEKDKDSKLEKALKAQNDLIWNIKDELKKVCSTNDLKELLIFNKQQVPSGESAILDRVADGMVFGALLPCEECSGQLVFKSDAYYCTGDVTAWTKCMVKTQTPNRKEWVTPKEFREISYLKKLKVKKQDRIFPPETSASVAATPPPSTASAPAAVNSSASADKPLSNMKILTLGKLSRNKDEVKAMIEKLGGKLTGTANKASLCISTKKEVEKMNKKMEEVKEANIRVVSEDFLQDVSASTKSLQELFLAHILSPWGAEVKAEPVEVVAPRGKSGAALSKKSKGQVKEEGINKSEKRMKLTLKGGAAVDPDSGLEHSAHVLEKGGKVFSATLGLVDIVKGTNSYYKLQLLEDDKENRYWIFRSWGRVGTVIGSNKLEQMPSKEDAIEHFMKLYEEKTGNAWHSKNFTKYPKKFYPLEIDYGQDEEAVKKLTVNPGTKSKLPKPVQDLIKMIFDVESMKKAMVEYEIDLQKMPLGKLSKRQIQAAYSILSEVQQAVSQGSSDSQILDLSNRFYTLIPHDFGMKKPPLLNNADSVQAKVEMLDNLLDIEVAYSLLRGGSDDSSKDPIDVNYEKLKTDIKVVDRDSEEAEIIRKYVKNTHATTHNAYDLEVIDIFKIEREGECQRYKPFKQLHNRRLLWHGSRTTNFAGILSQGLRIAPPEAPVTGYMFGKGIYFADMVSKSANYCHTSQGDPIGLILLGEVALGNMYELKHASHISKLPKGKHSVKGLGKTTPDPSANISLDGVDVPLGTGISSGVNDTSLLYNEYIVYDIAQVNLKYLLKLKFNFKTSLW
Run description: PARP enzyme assay (IC50)
Assay type: biochemical
Experimental conditions: IC50 (μM), approximate IC50 values, [3H]NAD
Measured metric: IC50 (µM)

1. CN(Cc1ccccc1)Cc1nc2cccc3c2n1CCNC3=O [drawing 179] | 0.166
2. O=c1[nH]c2ccc(N3C[C@@H]4C[C@H]3CN4)nc2c2ccccc12 | 0.042
3. Cc1nc2cccc3c2n1CCNC3=O | 0.141
4. O=C1NCCn2c(Cc3ccccc3)nc3cccc1c32 | 0.108
5. CN(Cc1ccccc1)Cc1nc2cccc3c2n1CCNC3=O [drawing 162] | 0.088
